- test system: HasAp (Pseudomonas aeruginosa, UniProt G3XD33, H32A)
- method notes: stopped-flow UV-vis kinetics at […] °C
pKd: −log10 of the molar value.
readout kind: pKd

[[record]]
molecule = "C=CC1=C(C)C2=Cc3c(C=C)c(C)c4[n]3[Fe]([Cl])[n]3c(c(C)c(CCC(=O)O)c3=CC3=NC(=C4)C(C)=C3CCC(=O)O)=CC1=N2 [hemin]"
readout_kind = "pKd"
numeric_result = 4.21

